Entry source: the supplement of paper PMC6555819

test system: PPARg:RXRa IVT, anti-PPARg (NR concentration 270 nM, RXRa partner concentration 90 nM); assay: PBM binding z-score (relative to random genomic background probes); higher = stronger binding; sequences stand for … in GC…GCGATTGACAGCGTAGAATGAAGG
Provide the reported PBM binding z-score of each item.

input: Notebook entry, PPARg:RXRa IVT, anti-PPARg (NR concentration 270 nM, RXRa partner concentration 90 nM) assay: PBM binding z-score of `GATACAGGGTCAGGGCCAGAGTACGCGTATTGAT` = ?
output: 2.69

input: So what PBM binding z-score did `ATGGAAAGGTCGAAGGTGAGTATACCCACCCGAA` get with PPARg:RXRa IVT, anti-PPARg (NR concentration 270 nM, RXRa partner concentration 90 nM)?
output: 2.06

input: Query for PPARg:RXRa IVT, anti-PPARg (NR concentration 270 nM, RXRa partner concentration 90 nM): what PBM binding z-score does the record show for `CGAACTAGGTCAGAACAGGACAGTGACGGATGAT` ?
output: 7.13

input: Request - read-out PBM binding z-score | tested on PPARg:RXRa IVT, anti-PPARg (NR concentration 270 nM, RXRa partner concentration 90 nM) | sequence `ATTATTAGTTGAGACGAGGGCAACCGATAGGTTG`
output: 1.43

input: Entry `CGTCCAATGTCATAGGAGGTCAGTGAAGACAGAT` , system PPARg:RXRa IVT, anti-PPARg (NR concentration 270 nM, RXRa partner concentration 90 nM): what PBM binding z-score was measured?
output: 1.95

input: What is its PBM binding z-score for PPARg:RXRa IVT, anti-PPARg (NR concentration 270 nM, RXRa partner concentration 90 nM)? Entry: `AGAATGAGGTTATTCGTAGATCAGGGAAGAAAGT`
output: 2.22

input: Quick check: PBM binding z-score on PPARg:RXRa IVT, anti-PPARg (NR concentration 270 nM, RXRa partner concentration 90 nM), item `TATACAGGGGCAAAGGCCAGAGTACGAATGTCGA` ?
output: 2.72

input: Request body: readout PBM binding z-score, system PPARg:RXRa IVT, anti-PPARg (NR concentration 270 nM, RXRa partner concentration 90 nM), query `TCATATAGGTAAAGTTGAAAGTCGAACGATATGA` . Return the value.
output: 2.66

input: Form entry - test system: PPARg:RXRa IVT, anti-PPARg (NR concentration 270 nM, RXRa partner concentration 90 nM); read-out: PBM binding z-score; sequence: `ATCGAAAGGTCGAAGAGGTGAGTATACACCGTTT`
output: 1.75

input: Give PBM binding z-score (PPARg:RXRa IVT, anti-PPARg (NR concentration 270 nM, RXRa partner concentration 90 nM)) of the following sequence: `ATCGAAAGGTCGAAGGTGATTATACCCACCCGAA`
output: 2

input: Observed PBM binding z-score on PPARg:RXRa IVT, anti-PPARg (NR concentration 270 nM, RXRa partner concentration 90 nM) for `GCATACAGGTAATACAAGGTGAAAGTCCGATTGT` , please.
output: 1.43

input: Report PBM binding z-score for `CCTCGGAAGACAACAGGAGGTCAGAGCTGCCAGA` tested on PPARg:RXRa IVT, anti-PPARg (NR concentration 270 nM, RXRa partner concentration 90 nM).
output: -0.416

input: Please provide the recorded PBM binding z-score for `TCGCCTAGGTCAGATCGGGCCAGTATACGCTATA` , tested on PPARg:RXRa IVT, anti-PPARg (NR concentration 270 nM, RXRa partner concentration 90 nM).
output: 1.11

input: So what PBM binding z-score did `GCTCGGAGGACAAGGTAAGAGCTTTGTCCGTAGA` get with PPARg:RXRa IVT, anti-PPARg (NR concentration 270 nM, RXRa partner concentration 90 nM)?
output: -0.298

input: Identify the measured PBM binding z-score of `ACTATTAGTTGAGACGAGGGCAATCGATAGGTTG` for PPARg:RXRa IVT, anti-PPARg (NR concentration 270 nM, RXRa partner concentration 90 nM).
output: 0.2

input: Checklist item: PBM binding z-score tested on PPARg:RXRa IVT, anti-PPARg (NR concentration 270 nM, RXRa partner concentration 90 nM), entry `CCTATTAGTTGACGATAAGGGCAACCGAAGCTCG` , value?
output: -0.036

input: Look up PBM binding z-score with PPARg:RXRa IVT, anti-PPARg (NR concentration 270 nM, RXRa partner concentration 90 nM) for this sequence: `CGAACGAGGGCATGAGTTTATAGCAAATGCCGAT`
output: 2.5

input: Requested read-out PBM binding z-score, target or system PPARg:RXRa IVT, anti-PPARg (NR concentration 270 nM, RXRa partner concentration 90 nM), entry `ACTAGTTGGTCAGCTGTGGTCACACACAATTCGG`
output: 0.902

input: Report PBM binding z-score for `TCTATTAGTTGATTAGGGCAACCCAAACAGCGGA` tested on PPARg:RXRa IVT, anti-PPARg (NR concentration 270 nM, RXRa partner concentration 90 nM).
output: 1.56

input: Hello, I am looking for reported PBM binding z-score with PPARg:RXRa IVT, anti-PPARg (NR concentration 270 nM, RXRa partner concentration 90 nM) for `CGAACTAGGTCATCCGGGACAGTGAATACATTGA` . Could you help?
output: 8.45

input: Kindly state the measured PBM binding z-score obtained for `CGAACTAGGTCATTGACAGGACAGGGAATAGTAA` with PPARg:RXRa IVT, anti-PPARg (NR concentration 270 nM, RXRa partner concentration 90 nM).
output: 8.21

input: Notebook: pull reported PBM binding z-score for PPARg:RXRa IVT, anti-PPARg (NR concentration 270 nM, RXRa partner concentration 90 nM), entry `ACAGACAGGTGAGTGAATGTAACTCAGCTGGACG`
output: 0.325

input: Short answer please: PBM binding z-score, PPARg:RXRa IVT, anti-PPARg (NR concentration 270 nM, RXRa partner concentration 90 nM), entry `GGAACGCGGGCATTCGAGTTGATAGCATGGCGAT`
output: -0.666

input: Request: PBM binding z-score, test system PPARg:RXRa IVT, anti-PPARg (NR concentration 270 nM, RXRa partner concentration 90 nM), entry `CCTACTTGGCCAAAGGTCATTGATTCCAATGCTC`
output: 4.83

input: Write down the reported PBM binding z-score of `GCAACTGGGGCATCAGCAGGTTACCATAACTTAA` , test system: PPARg:RXRa IVT, anti-PPARg (NR concentration 270 nM, RXRa partner concentration 90 nM).
output: 5.15

input: Reported PBM binding z-score for PPARg:RXRa IVT, anti-PPARg (NR concentration 270 nM, RXRa partner concentration 90 nM), given `TCTCGGAGGACACAAAAGGTCAGAGCTCGACATC` ?
output: 1.65

input: Look up PBM binding z-score with PPARg:RXRa IVT, anti-PPARg (NR concentration 270 nM, RXRa partner concentration 90 nM) for this sequence: `CCTTACGGGTCACTGACAGGTTCTAGCATTTGGA`
output: 3.38

input: Recorded PBM binding z-score for `CCTACTGGGCTACGAAAGGTCATTGATTCAGTGA` with PPARg:RXRa IVT, anti-PPARg (NR concentration 270 nM, RXRa partner concentration 90 nM), please?
output: 3.65

input: Notebook entry, PPARg:RXRa IVT, anti-PPARg (NR concentration 270 nM, RXRa partner concentration 90 nM) assay: PBM binding z-score of `CGAACTAGGTCATTGACAGGACAGTGATTAGTAA` = ?
output: 8.17

input: Please tell me: PBM binding z-score of `CAGCCTAGGTCAGGGCAAGTATAGGAGGAACGTT` , system PPARg:RXRa IVT, anti-PPARg (NR concentration 270 nM, RXRa partner concentration 90 nM)?
output: 2

input: Form: Entry = `GTACCAAGGTGAATAGGCCGTTGATGAGTAGGCG` | System = PPARg:RXRa IVT, anti-PPARg (NR concentration 270 nM, RXRa partner concentration 90 nM) | PBM binding z-score = ____
output: 2.14

input: Entry `CCTCGGAGGACAACAGAAGGTCAGAGCTGCCAGA` , system PPARg:RXRa IVT, anti-PPARg (NR concentration 270 nM, RXRa partner concentration 90 nM): what PBM binding z-score was measured?
output: 0.0477

input: Query PBM binding z-score on PPARg:RXRa IVT, anti-PPARg (NR concentration 270 nM, RXRa partner concentration 90 nM) for `ACTTACGGGTCAACGAGGTTCTAGCACGCGTATA`
output: 3.8

input: Query the reported PBM binding z-score for PPARg:RXRa IVT, anti-PPARg (NR concentration 270 nM, RXRa partner concentration 90 nM); item: `ACAGACAGGTGAGTGAAGGTAACTGAGCTGGACG`
output: 0.903

input: Kindly state the measured PBM binding z-score obtained for `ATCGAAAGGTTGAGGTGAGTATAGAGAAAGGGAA` with PPARg:RXRa IVT, anti-PPARg (NR concentration 270 nM, RXRa partner concentration 90 nM).
output: 1.04

input: API: value(readout= PBM binding z-score, system= PPARg:RXRa IVT, anti-PPARg (NR concentration 270 nM, RXRa partner concentration 90 nM), query= `ATCGAAAGGTCGACGAGGTGAGTATCCACCGTTT` )
output: 1.86

input: Request body: readout PBM binding z-score, system PPARg:RXRa IVT, anti-PPARg (NR concentration 270 nM, RXRa partner concentration 90 nM), query `CCGACTGTGGCAGAAAGGTTACCATACCATCCGG` . Return the value.
output: 0.812

input: Look up PBM binding z-score with PPARg:RXRa IVT, anti-PPARg (NR concentration 270 nM, RXRa partner concentration 90 nM) for this sequence: `CCTTACGCGTCACTCCAGGTTATAGCATCGGAGT`
output: 0.368

input: Form field - read-out: PBM binding z-score; system: PPARg:RXRa IVT, anti-PPARg (NR concentration 270 nM, RXRa partner concentration 90 nM); submitted item: `TCAGACAGGTGATGGTAACTCAGGTACGCAGTCG`
output: 0.496

input: # query: PBM binding z-score | item `GCTGCTAGGTCAGGTTGCTCAGCTAACGGGTACG` | system: PPARg:RXRa IVT, anti-PPARg (NR concentration 270 nM, RXRa partner concentration 90 nM)
output: 2.01

input: Param readout = PBM binding z-score; param system = PPARg:RXRa IVT, anti-PPARg (NR concentration 270 nM, RXRa partner concentration 90 nM); param query = `CCGACTGGGGCATAAGGTTACCAGAAGCCAGCCC` ; response: value
output: 3.13

input: Lab request: please report PBM binding z-score under test system PPARg:RXRa IVT, anti-PPARg (NR concentration 270 nM, RXRa partner concentration 90 nM) for `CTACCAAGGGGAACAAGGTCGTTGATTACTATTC`
output: 0.857

input: Form field: PBM binding z-score recorded for `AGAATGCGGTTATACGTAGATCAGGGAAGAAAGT` with PPARg:RXRa IVT, anti-PPARg (NR concentration 270 nM, RXRa partner concentration 90 nM) (enter value)
output: -0.172

input: What measured PBM binding z-score is associated with `GCTGCTAGGTCATCTGATGGTCAGCTAAAGCTCG` on PPARg:RXRa IVT, anti-PPARg (NR concentration 270 nM, RXRa partner concentration 90 nM)?
output: 3.44

input: Short answer please: PBM binding z-score, PPARg:RXRa IVT, anti-PPARg (NR concentration 270 nM, RXRa partner concentration 90 nM), entry `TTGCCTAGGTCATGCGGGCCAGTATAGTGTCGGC`
output: 2.82

input: Entry `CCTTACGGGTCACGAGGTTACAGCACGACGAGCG` , system PPARg:RXRa IVT, anti-PPARg (NR concentration 270 nM, RXRa partner concentration 90 nM): what PBM binding z-score was measured?
output: 5.66

input: Item `CAAACTTGGTCAAAGGTCAAAGTCGAGCCAACCA` with PPARg:RXRa IVT, anti-PPARg (NR concentration 270 nM, RXRa partner concentration 90 nM) - PBM binding z-score?
output: 6.48

input: Param readout = PBM binding z-score; param system = PPARg:RXRa IVT, anti-PPARg (NR concentration 270 nM, RXRa partner concentration 90 nM); param query = `CTACCAAGGTGAACACGGTCGTTGATTACTATTC` ; response: value
output: 2.43

input: Quick check: PBM binding z-score on PPARg:RXRa IVT, anti-PPARg (NR concentration 270 nM, RXRa partner concentration 90 nM), item `CGTCCAAGGTCAGAGAGATCAGTGAATGCCGAGT` ?
output: 2.11

input: Any idea what PBM binding z-score came out for `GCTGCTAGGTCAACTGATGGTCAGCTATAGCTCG` on PPARg:RXRa IVT, anti-PPARg (NR concentration 270 nM, RXRa partner concentration 90 nM)?
output: 4.3

input: So what PBM binding z-score did `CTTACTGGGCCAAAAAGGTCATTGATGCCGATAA` get with PPARg:RXRa IVT, anti-PPARg (NR concentration 270 nM, RXRa partner concentration 90 nM)?
output: 5.95
